Molecular target: T1, human IL-25 expressed with a C-terminal myc-myc-hexahistidine tag (human)
T1 construct: also called human IL-25-MMH; hIL-25-MMH
T1 chain: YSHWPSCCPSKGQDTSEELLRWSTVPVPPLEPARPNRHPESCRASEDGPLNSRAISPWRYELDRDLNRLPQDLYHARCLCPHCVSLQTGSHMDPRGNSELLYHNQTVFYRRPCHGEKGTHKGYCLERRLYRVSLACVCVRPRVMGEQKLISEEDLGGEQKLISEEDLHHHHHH
Experiment: SPR Biacore, captured mAb, 37°C
# key: entry, value: t½
Express the result in h but write the number alone.

Binder	t½ (h)
H4H10905P (antibody, human IgG4, V domains shown) VH: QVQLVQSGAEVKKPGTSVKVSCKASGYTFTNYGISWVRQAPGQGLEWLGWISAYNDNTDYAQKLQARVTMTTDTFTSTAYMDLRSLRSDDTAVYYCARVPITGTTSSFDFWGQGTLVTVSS VL: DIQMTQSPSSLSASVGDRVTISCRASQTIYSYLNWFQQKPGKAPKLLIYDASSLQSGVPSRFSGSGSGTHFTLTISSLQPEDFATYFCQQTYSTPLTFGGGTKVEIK	1.6

Ask: Item under review: H4H10876P (antibody, human IgG4, V domains shown) VH: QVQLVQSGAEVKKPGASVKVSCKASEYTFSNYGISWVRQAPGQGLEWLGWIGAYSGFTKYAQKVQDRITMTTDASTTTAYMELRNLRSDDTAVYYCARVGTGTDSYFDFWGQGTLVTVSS VL: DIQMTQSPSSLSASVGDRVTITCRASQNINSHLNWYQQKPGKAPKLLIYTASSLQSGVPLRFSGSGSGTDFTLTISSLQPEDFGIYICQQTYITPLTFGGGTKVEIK . Reported t½?
Reply: 3.25

Ask: Given the binder H4H10907P (antibody, human IgG4, V domains shown) VH: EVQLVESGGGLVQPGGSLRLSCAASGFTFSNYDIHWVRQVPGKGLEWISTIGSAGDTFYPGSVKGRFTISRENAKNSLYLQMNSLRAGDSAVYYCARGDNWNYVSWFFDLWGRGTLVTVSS VL: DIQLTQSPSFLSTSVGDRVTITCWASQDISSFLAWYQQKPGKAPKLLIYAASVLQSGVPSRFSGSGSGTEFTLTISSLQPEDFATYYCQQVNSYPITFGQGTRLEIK , what is its reported t½?
Reply: 4.32

Ask: Entry H4H10901P (antibody, human IgG4, V domains shown) VH: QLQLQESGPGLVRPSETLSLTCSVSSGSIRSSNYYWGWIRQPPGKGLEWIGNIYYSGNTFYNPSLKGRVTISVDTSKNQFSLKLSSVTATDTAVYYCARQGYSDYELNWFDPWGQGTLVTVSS VL: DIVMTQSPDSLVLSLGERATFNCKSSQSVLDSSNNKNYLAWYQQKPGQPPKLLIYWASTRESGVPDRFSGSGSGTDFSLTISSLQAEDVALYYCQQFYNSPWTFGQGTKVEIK : reported t½ = ?
Reply: 0.933

Ask: Could you tell me which t½ is on file for H4H10861P (antibody, human IgG4, V domains shown) VH: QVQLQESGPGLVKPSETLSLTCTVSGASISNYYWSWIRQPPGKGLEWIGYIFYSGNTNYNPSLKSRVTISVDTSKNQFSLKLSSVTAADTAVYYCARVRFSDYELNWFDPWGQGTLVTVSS VL: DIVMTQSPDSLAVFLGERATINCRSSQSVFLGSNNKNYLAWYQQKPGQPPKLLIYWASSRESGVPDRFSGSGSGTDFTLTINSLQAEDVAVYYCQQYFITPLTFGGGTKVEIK ?
Reply: 2.47

Ask: Suppose we examine the binder H4H10871P (antibody, human IgG4, V domains shown) VH: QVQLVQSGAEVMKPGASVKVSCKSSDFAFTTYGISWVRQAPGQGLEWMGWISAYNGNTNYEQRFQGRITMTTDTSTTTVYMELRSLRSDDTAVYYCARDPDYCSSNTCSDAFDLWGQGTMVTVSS VL: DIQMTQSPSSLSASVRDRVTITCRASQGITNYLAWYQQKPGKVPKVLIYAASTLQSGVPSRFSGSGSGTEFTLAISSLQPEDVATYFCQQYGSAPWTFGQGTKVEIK ; what t½ value has been reported?
Reply: 6.05

Where do these numbers come from? They come from patent US20160083466A1.
